# experimentalTarget: T1, human CD3e/d (human, UniProt P07766 23-126; P04234 22-105)
# T1 construct: Bought soluble protein; also called hCD3e/d; human CD3/ed (Sino CT038-H2508H)
# T1 sequence (P07766 23-126, chain 1 of 2): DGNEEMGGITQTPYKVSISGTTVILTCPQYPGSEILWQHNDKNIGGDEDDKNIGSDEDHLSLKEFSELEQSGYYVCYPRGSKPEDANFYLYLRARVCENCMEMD
# T1 sequence (P04234 22-105, chain 2 of 2): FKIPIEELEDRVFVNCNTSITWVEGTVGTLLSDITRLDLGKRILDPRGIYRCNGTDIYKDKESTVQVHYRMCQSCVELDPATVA
# assayProcedure: SPR (Carterra LSA), mAb on chip
Measured Kd by item
Numbers only; they are read as nM.

binder="mAb 111 (antibody, V domains shown, VH and VL only) VH: EVQLVESGGVLVKTGGSLRLSCVASGFSFKKAWMNWVRQAPGKGLEWVGRIKRNSDGGAADYAAPVKDRFTLSRDDSKNTLYLQMNSLKTEDTAVYYCTTLDSSSWYVGYYYMDVWGKGTTVTVSS VL: DIHMTQSPSSVSASLGDRVTFTCRASQNINNWLAWYQQKPGKAPKLLIYTASSLQSGVPSRFSGSGSGTDFTLTISSLQPDDFATYYCQQAHSLPITFGQGTRLGIK" measurementunit=nM resultvalue=19.6

Then this binder:
Request: Which measured Kd value corresponds to mAb 194 (antibody, V domains shown, VH and VL only) VH: QEQLVESGGGVVQPGGSLRLSCAASGFIFSGYGMHWVRQAPGKGLEWVAIIWYNGRKTYYAESVKGRFTISRDNSKNTLSLQMNSLRVEDTAVYYCTAGQGYNWFDPWGQGTLVTVSS VL: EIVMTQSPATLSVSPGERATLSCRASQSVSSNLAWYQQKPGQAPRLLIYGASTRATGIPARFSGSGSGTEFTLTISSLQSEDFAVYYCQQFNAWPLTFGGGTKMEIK ?
Result: 19
